// data source = paper PMC11851448

tested.target: LiARG (recombinant arginase from L. infantum) (Leishmania infantum)
Construct: recombinant, purified
test.protocol: urea release, colorimetric UREA CE kit, […] nm
assay.endpoint: IC50 (µM)
// units = µM; emit number, no label

Provide IC50, tested on LiARG (recombinant arginase from L. infantum) (Leishmania infantum), for O=c1c(O)c(-c2ccc(O)c(O)c2)oc2cc(O)cc(O)c12 [quercetin] .
23.2
